- target.desc: TEAD2 YAP50-100 (Homo sapiens, UniProt Q15562)
- Sequence (Q15562 217-447): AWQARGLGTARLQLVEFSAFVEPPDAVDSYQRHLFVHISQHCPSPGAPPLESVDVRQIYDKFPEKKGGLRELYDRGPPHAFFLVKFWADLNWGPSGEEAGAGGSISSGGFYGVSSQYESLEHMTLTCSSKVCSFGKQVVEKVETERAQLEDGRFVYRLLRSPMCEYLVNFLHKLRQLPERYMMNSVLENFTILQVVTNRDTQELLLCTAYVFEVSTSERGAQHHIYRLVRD
- experimental.details: TEAD2-YAP HTRF (TR-FRET) protein-protein interaction assay
- condition.label: TEAD2, YAP peptide 50-100, HTRF; read-out: TEAD2 YAP50-100 HTRF combined: EC50
experimental.endpoint: EC50 (nM)

| compound | target.desc | EC50, nM |
| --- | --- | --- |
| COc1nccnc1-c1nn2c(=O)cc(-c3ccc(C4CCCCC4)cc3)[nH]c2c1C(=O)N1CC(CF)C1 | TEAD2 YAP50-100 (Homo sapiens, UniProt Q15562) | 20 |

P = O=C(c1c(-c2nccc(C(F)(F)F)n2)nn2c(=O)cc(-c3ccc(C4CCCCC4)cc3)[nH]c12)N1CC(CF)C1
Q = C[C@H]1[C@@H](CF)CN1C(=O)c1c(-c2cnccn2)nn2c(=O)cc(-c3ccc(CC4CCCC4)cc3)[nH]c12 (single isomer, unassigned) [Isomer B, Example 44]
-- ask Thinking about recorded EC50 values, which is higher, P or Q ? The response must carry the label of the picked entry.
-- reply P
(P: 20 nM, Q: 10 nM)

This collection of values is drawn from patent US12692269B2.
